target: UniProtKB P31749
Sequence (P31749 whole entry): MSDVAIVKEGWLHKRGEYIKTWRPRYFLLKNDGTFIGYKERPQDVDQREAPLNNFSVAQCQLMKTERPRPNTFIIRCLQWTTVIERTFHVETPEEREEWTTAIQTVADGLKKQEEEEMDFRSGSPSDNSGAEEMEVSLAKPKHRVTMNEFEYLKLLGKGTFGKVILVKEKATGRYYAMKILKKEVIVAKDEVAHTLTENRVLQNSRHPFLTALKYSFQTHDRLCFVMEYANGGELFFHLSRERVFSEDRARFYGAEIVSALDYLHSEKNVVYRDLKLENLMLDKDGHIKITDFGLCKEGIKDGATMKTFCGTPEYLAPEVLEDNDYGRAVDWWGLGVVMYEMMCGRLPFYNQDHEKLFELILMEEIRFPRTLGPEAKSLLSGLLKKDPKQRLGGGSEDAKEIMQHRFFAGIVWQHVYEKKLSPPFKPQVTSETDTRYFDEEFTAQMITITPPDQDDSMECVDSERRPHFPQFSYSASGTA
pIC50: −log10 of the molar value.
Parameter threshold = 5. Response is 1 when pIC50 meets or exceeds it, else 0.

NC(=O)c1ccc(NC2CNCC2c2cccc(C(F)(F)F)c2)c2cncnc12 (stereo not drawn)	1
NC(=O)c1ccc(N2CCN(c3ccc(F)c(F)c3)CC2)c2cncnc12	0
NC(=O)c1ccc(N2CCN(c3cccc(C(F)(F)F)c3)CC2)c2cncnc12	0
NC(=O)c1ccc(NC2CNCCC2c2ccc(F)cc2)c2cncnc12 (stereo not drawn)	1
NC(=O)c1ccc(NCCc2ccc(F)cc2)c2cncnc12	1
CN(C)C(CNc1ccc(C(N)=O)c2ncncc12)c1cccc(Cl)c1 (racemic)	0

Decide: is the reported value of pIC50 for NC(=O)c1ccc(NC2CNCCC2c2cccc(C(F)(F)F)c2)c2cncnc12 (stereo not drawn) equal to or greater than 5? 1

Say whether NC(=O)c1ccc(NCCc2cccc(F)c2)c2cncnc12 shows pIC50 of 5 or more. 1

Evaluate NC(=O)c1ccc(NCc2cccnc2)c2cncnc12 : pIC50 at minimum 5? 0

Please indicate if the recorded pIC50 for NC(=O)c1ccc(N2CCN(c3ccccc3)CC2)c2cncnc12 meets or exceeds 5. 0

Data provenance: patent US9139568B2
